Measured values drawn from patent US12162819B2 for this set.

experimentDescription: Particle size and PDI of lipid nanoparticles by dynamic light scattering
Format: physicochemical
assayContext: lipid nanoparticle with the cationic lipid, cholesterol, DSPC, DMG-PEG2000 (50/38.5/10/1.5 mol%), luciferase mRNA, N/P 6
Some compounds, each annotated with its measured Particle size (nm).
Report as a plain number; the unit nm is understood.

CCCCCCCCCCNC(=O)C(C)(C)CCCCCC(CCCCCC(C)(C)C(=O)NCCCCCCCCCC)OC(=O)CCN(C)C; 127.82
CCCCCCCCCOC(=O)C(C)(C)CCCCCC(CCCCCC(C)(C)C(=O)OCC#CC(CCCCCC)CCCCCC)OC(=O)CCCN(C)C (centres unmarked); 88.33
CCCCCCCCCN(CCCCCCCCC)C(=O)C(C)(C)CCCCCC(CCCCCC(C)(C)C(=O)N(CCCCCCCCC)CCCCCCCCC)OC(=O)CCN(C)C; 89.34
CCCCCCCCCSC(=O)C(C)(C)CCCCCC(CCCCCC(C)(C)C(=O)SCCCCCCCCC)OC(=O)C1CCN(C)CC1; 83.09
CC(C)CCCC(C)CCOC(=O)C(C)(C)CCCCCC(CCCCCC(C)(C)C(=O)OCCC(C)CCCC(C)C)OC(=O)CCN(C)C (centres unmarked); 106.18
CCCCCCCCCOC(=O)C(C)(C)CCCCC(CCCCC(C)(C)C(=O)OCC(CCCCC)CCCCCCC)OC(=O)CCCN(C)C (centres unmarked); 96.72
CCCCCCCCCOC(=O)C(C)(C)CCCCCC(CCCCCC(C)(C)C(=O)OCCCCCCCCC)OC(=O)CCCCCN(C)C; 116.61
CCCCCCCC#CCOC(=O)C(C)(C)CCCCCC(CCCCCC(C)(C)C(=O)OCC(CCCCC)CCCCCCC)OC(=O)CCCN(C)C (centres unmarked); 88.62

Sample CCCCCCCCCSC(=O)C(C)(C)CCCCCC(CCCCCC(C)(C)C(=O)OCC(CCCCC)CCCCCCC)OC(=O)CC1CCN(C)CC1 (centres unmarked) — what was its Particle size (nm)?
121.05

Sample CCCCCCCCCOC(=O)C(C)(C)CCCCCC(CCCCCC(C)(C)C(=O)OCC(CCCCC)CCCCCCC)OC(=O)CCCN(C)C (centres unmarked) — what was its Particle size (nm)?
97.30

Sample CCCCCC/C=C\CCOC(=O)C(C)(C)CCCCCC(CCCCCC(C)(C)C(=O)OCC/C=C\CCCCCC)OC(=O)CCCN(C)C — what was its Particle size (nm)?
105.70

Sample CCCCCCCCCOC(=O)C(C)(C)CCCCCC(CCCCCC(C)(C)C(=O)OCCCCCCCCC)OC(=O)C1CCN(C)CC1 — what was its Particle size (nm)?
102.18

Sample CCCCCCCC#CCOC(=O)C(C)(C)CCCCCC(CCCCCC(C)(C)C(=O)OCC#CCCCCCCC)OC(=O)CCCN(C)C — what was its Particle size (nm)?
151.35
